Would you kindly list pKd for each of these binders?
Molecular target: T1, Rb^P V754G (human, UniProt P06400 380-788, V754G)
T1 construct: also called variant 73
T1 sequence (looked up): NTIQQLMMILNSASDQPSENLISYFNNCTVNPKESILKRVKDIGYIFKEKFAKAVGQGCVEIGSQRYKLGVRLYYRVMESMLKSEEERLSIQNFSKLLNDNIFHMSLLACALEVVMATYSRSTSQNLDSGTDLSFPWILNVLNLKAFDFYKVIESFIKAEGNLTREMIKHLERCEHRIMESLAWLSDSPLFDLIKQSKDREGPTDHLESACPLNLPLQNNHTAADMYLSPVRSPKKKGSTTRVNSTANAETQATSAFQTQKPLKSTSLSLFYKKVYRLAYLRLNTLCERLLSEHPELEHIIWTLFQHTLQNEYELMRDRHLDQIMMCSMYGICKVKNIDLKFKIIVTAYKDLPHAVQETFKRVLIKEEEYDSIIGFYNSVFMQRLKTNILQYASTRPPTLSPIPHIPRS
Experiment: fluorescence polarisation; 25 °C; unlabeled Rb^P titrated against 1.5 nM TMR-E2F1^TD or 7.5 nM TMR-E7^LxCxE; 25 mM Tris pH 8.0, 200 mM NaCl, 1 mM DTT, 0.1% Tween-20; 2 min incubation; quadratic fit; apparent Kd for the variants, Kd for WT
Conditions: both partners purified
No end group written: not given here. TMR = tetramethyl rhodamine dye
Answers are plain numbers, as −log10 of the molar value.

{"BINDER": "DLYCYEQLN (also: TMR label, position not given here, source: synthetic peptide, bought: GenScript) [TMR-E7^LxCxE, LxCxE peptide of the E7 oncoprotein from HPV]", "QUANTITY": "pKd", "VALUE REPORTED": 8.15}

Which pKd value is on record for {TMR}-GEGIRDLFDCDFGDLTPLD (also called E2F^TD; source: synthetic peptide, bought: GenScript) [TMR-E2F1^TD, peptide of the E2F1 transactivation domain] ?
7.70

The measurements presented in this section are drawn from paper PMC11931385.
